Each recorded value in this set is attributed to ChEMBL document CHEMBL3797083.

Experiment: Solubility of compound at pH 7.4 buffer
Type: physicochemical
Readings of solubility for the listed compounds
quantityMeasured: solubility (µM)

[[record]]
compound = "CC(C)(C)c1ccc(S(=O)(=O)Nc2ccc(Cl)c3c2C(=O)N(Cc2cccc[n+]2[O-])C3=O)cc1"
assayvalue = 69

[[record]]
compound = "Cc1cccc(N2C(=O)c3c(Cl)ccc(NS(=O)(=O)c4ccc(C(C)(C)C)cc4)c3C2=O)n1"
assayvalue = 27

[[record]]
compound = "COc1ccncc1N1C(=O)c2c(Cl)ccc(NS(=O)(=O)c3ccc(C(C)(C)C)cc3)c2C1=O"
assayvalue = 10

[[record]]
compound = "CC(C)(C)c1ccc(S(=O)(=O)Nc2ccc(Cl)c3c2C(=O)N(Cc2ccc[n+]([O-])c2)C3=O)cc1"
assayvalue = 126

[[record]]
compound = "CC(C)(C)c1ccc(S(=O)(=O)Nc2ccc(Cl)cc2C(=O)c2cc[n+]([O-])cc2)cc1 [VERCIRNON]"
assayvalue = 6

[[record]]
compound = "Cc1c(N2C(=O)c3c(Cl)ccc(NS(=O)(=O)c4ccc(C(C)(C)C)cc4)c3C2=O)ccc[n+]1[O-]"
assayvalue = 114

[[record]]
compound = "Cc1ncccc1N1C(=O)c2c(Cl)ccc(NS(=O)(=O)c3ccc(C(C)(C)C)cc3)c2C1=O"
assayvalue = 81

[[record]]
compound = "COc1ncccc1N1C(=O)c2c(Cl)ccc(NS(=O)(=O)c3ccc(C(C)(C)C)cc3)c2C1=O"
assayvalue = 26


###

Molecular target: C-C chemokine receptor type 9 (Homo sapiens)
Sequence (P51686 whole entry): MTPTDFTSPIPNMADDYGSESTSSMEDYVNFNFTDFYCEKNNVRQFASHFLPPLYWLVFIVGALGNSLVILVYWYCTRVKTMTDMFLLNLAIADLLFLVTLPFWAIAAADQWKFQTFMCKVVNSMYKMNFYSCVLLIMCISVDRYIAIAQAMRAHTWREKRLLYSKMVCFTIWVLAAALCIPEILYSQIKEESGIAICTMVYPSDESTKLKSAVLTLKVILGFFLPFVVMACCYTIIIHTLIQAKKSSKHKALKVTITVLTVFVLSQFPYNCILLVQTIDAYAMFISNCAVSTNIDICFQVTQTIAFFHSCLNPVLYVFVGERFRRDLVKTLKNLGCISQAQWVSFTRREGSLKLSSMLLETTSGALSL
Assay: Antagonist activity at CCR9 receptor in human MOLT4 cells assessed as inhibition of CCL25-induced increase in intracellular calcium level preincubated for 1 hr followed CCL25 addition by FLIPR assay
Type: functional, cell-based, MOLT-4
pKi: −log10 of the molar value.
Readings of pKi for the listed compounds
quantityMeasured: pKi

[[record]]
structurenotation = "CC(C)(C)c1ccc(S(=O)(=O)Nc2ccc(Cl)c3c2C(=O)N(c2ccc(F)nc2)C3=O)cc1"
assayvalue = 7.72

[[record]]
structurenotation = "CC(C)(C)c1ccc(S(=O)(=O)Nc2cccc3c2C(=O)N(Cc2cccnc2)C3=O)cc1"
assayvalue = 6.21

[[record]]
structurenotation = "COc1ncccc1N1C(=O)c2c(Cl)ccc(NS(=O)(=O)c3ccc(C(C)(C)C)cc3)c2C1=O"
assayvalue = 8.52


###

Assay: Clearance in mouse at 1 mg/kg, iv
Format: ADME, organism-based
Conditions: in vivo
quantityMeasured: clearance (L/h/kg)

[[record]]
compound = "COc1ccncc1N1C(=O)c2c(Cl)ccc(NS(=O)(=O)c3ccc(C(C)(C)C)cc3)c2C1=O"
assayvalue = 0.412

[[record]]
compound = "CC(C)(C)c1ccc(S(=O)(=O)Nc2ccc(Cl)cc2C(=O)c2cc[n+]([O-])cc2)cc1 [VERCIRNON]"
assayvalue = 6.18

[[record]]
compound = "Cc1ncccc1N1C(=O)c2c(Cl)ccc(NS(=O)(=O)c3ccc(C(C)(C)C)cc3)c2C1=O"
assayvalue = 0.156

[[record]]
compound = "COc1ncccc1N1C(=O)c2c(Cl)ccc(NS(=O)(=O)c3ccc(C(C)(C)C)cc3)c2C1=O"
assayvalue = 0.104


###

Test: Metabolic stability of compound in mouse liver microsomes assessed as remaining compound at 37 deg C
Type: ADME
quantityMeasured: Stability (%)

[[record]]
compound = "Cc1ncccc1N1C(=O)c2c(Cl)ccc(NS(=O)(=O)c3ccc(C(C)(C)C)cc3)c2C1=O"
outputunit = "%"
assayvalue = 62

[[record]]
compound = "COc1ncccc1N1C(=O)c2c(Cl)ccc(NS(=O)(=O)c3ccc(C(C)(C)C)cc3)c2C1=O"
outputunit = "%"
assayvalue = 64

[[record]]
compound = "COc1ccncc1N1C(=O)c2c(Cl)ccc(NS(=O)(=O)c3ccc(C(C)(C)C)cc3)c2C1=O"
outputunit = "%"
assayvalue = 60

[[record]]
compound = "Cc1cccc(N2C(=O)c3c(Cl)ccc(NS(=O)(=O)c4ccc(C(C)(C)C)cc4)c3C2=O)n1"
outputunit = "%"
assayvalue = 42

[[record]]
compound = "Cc1c(N2C(=O)c3c(Cl)ccc(NS(=O)(=O)c4ccc(C(C)(C)C)cc4)c3C2=O)ccc[n+]1[O-]"
outputunit = "%"
assayvalue = 76

[[record]]
compound = "CC(C)(C)c1ccc(S(=O)(=O)Nc2ccc(Cl)cc2C(=O)c2cc[n+]([O-])cc2)cc1 [VERCIRNON]"
outputunit = "%"
assayvalue = 9

[[record]]
compound = "CC(C)(C)c1ccc(S(=O)(=O)Nc2ccc(Cl)c3c2C(=O)N(Cc2cccc[n+]2[O-])C3=O)cc1"
outputunit = "%"
assayvalue = 79

[[record]]
compound = "CC(C)(C)c1ccc(S(=O)(=O)Nc2ccc(Cl)c3c2C(=O)N(Cc2ccc[n+]([O-])c2)C3=O)cc1"
outputunit = "%"
assayvalue = 8

